- assay.target: Farnesyl diphosphate synthase (Trypanosoma cruzi)
- Sequence (Q8WS26 whole entry): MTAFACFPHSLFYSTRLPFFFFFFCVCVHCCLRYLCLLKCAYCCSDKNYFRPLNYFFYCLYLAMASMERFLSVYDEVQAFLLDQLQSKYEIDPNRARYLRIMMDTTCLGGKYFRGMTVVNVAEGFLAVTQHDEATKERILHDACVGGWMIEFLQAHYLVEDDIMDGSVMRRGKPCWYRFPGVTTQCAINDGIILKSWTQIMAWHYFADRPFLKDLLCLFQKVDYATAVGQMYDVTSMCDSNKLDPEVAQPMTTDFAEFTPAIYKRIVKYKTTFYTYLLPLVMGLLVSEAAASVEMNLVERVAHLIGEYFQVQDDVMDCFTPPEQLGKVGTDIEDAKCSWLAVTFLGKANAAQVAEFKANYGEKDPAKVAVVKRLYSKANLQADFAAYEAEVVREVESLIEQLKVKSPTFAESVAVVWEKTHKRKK
pIC50: −log10 of the molar value.

compound: CCCCCC(C)NCC(P(=O)(O)O)P(=O)(O)O (stereo not drawn)
censoring.sign: <
pIC50: 5.00

compound: CCCCSCC(P(=O)(O)O)P(=O)(O)O
censoring.sign: =
pIC50: 6.10

compound: CCCCCCCNCC(O)(P(=O)(O)O)P(=O)(O)O
censoring.sign: <
pIC50: 5.00

compound: CCCSCC(P(=O)(O)O)P(=O)(O)O
censoring.sign: =
pIC50: 6.03

compound: CCCCCCCC[S+]([O-])CC(P(=O)(O)O)P(=O)(O)O (stereo not drawn)
censoring.sign: <
pIC50: 5.00

compound: CCCCCCCCCCSCC(P(=O)(O)O)P(=O)(O)O
censoring.sign: =
pIC50: 7.01

compound: CCCCCC[S+]([O-])CC(P(=O)(O)O)P(=O)(O)O (stereo not drawn)
censoring.sign: <
pIC50: 5.00

compound: CCSCC(P(=O)(O)O)P(=O)(O)O
censoring.sign: =
pIC50: 6.20

* * *

We begin with a simple list: items and their reported pIC50.
- assay.target: Farnesyl diphosphate synthase (Toxoplasma gondii, UniProt Q197X6)
- Sequence (Q197X6 whole entry): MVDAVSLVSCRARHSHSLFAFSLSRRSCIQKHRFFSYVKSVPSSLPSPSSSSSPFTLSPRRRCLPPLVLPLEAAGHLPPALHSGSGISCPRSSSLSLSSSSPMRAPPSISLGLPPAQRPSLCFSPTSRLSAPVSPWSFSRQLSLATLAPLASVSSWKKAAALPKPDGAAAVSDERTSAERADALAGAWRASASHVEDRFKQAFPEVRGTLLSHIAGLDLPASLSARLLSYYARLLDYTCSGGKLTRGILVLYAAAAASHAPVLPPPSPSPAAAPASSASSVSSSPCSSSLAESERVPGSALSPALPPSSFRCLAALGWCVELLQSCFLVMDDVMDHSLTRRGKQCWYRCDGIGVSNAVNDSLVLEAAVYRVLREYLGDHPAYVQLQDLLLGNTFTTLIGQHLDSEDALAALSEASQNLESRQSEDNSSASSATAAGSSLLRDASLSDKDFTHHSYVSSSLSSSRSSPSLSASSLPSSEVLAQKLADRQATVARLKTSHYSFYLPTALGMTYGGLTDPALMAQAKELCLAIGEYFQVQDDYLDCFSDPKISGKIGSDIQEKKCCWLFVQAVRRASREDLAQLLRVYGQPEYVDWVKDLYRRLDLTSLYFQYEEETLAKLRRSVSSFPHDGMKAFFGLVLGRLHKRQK
- assay.details: Inhibition of Toxoplasma gondii farnesyl diphosphate synthase assessed as incorporation of [4-14C]IPP measured at 37 degC
pIC50: −log10 of the molar value.

compound: CCCCC[S+]([O-])CC(P(=O)(O)O)P(=O)(O)O (stereo not drawn)
assay.target: Farnesyl diphosphate synthase (Toxoplasma gondii, UniProt Q197X6)
pIC50: < 5.00
--
compound: CCCCCC(C)NCC(P(=O)(O)O)P(=O)(O)O (stereo not drawn)
assay.target: Farnesyl diphosphate synthase (Toxoplasma gondii, UniProt Q197X6)
pIC50: > 6.00
--
compound: CCCCCS(=O)(=O)CC(P(=O)(O)O)P(=O)(O)O
assay.target: Farnesyl diphosphate synthase (Toxoplasma gondii, UniProt Q197X6)
pIC50: < 5.00
